system: HOP-92; experiment: NCI tumour cell line growth inhibition, 48 h
Calls of active or inactive are those of the source. Rule as the data show it: active = GI50 up to about 1.1 µM and inactive = higher.
Recorded measurements of GI50, one per entry

Molecule	GI50
CC(C)(C)c1cc(/C=C2/NC(=O)NC2=O)cc(C(C)(C)C)c1O	14.2 µM (inactive)
COc1cc(C2c3cc4c(cc3OC(NC3CCCCC3)C2C)OCO4)cc(OC)c1OC (stereo unspecified)	2.65 µM (inactive)
NCc1ccc(C(=O)O)cc1 [AMINOMETHYLBENZOIC ACID]	> 100 µM (inactive)
CCCCCCCCCCCCNC(=S)OC	7.08 µM (inactive)
CS(=O)(=O)Nc1ccc2ccccc2c1-c1c(NS(C)(=O)=O)ccc2ccccc12	> 25 µM (inactive)

Please look at the following molecule next.
Challenge: Recorded GI50 of COC(=O)c1ccccc1C1CN=NC12Cc1c(C)cccc1C2=O (stereo unspecified) , please.
Response given: 29.1 µM (inactive)

Values compiled from ChEMBL document CHEMBL1201862.
